# test description: human clinical trial, pharmacokinetics of Tablet Formulation 6 and Tablet Formulation 7, fasted and fed
# study conditions: in vivo, oral, administered as Tablet Formulation 6, single dose of two tablets, Fasted, GM
Measured Cmax by item
A complete answer gives the number and then names the unit.

- molecule: "COC(=O)N[C@H](C(=O)N1CCC[C@H]1c1ncc(-c2cc(F)c3c(c2)O[C@@H](c2cnc(C4CC4)s2)n2c-3cc3cc(-c4cnc([C@@H]5CCCN5C(=O)[C@@H](NC(=O)OC)C(C)C)[nH]4)ccc32)[nH]1)C(C)C [Compound II]"
  reported result: "57 nM"

Turning to the following molecule.
Per the records, this molecule ( C=C[C@@H]1C[C@]1(NC(=O)[C@@H]1C[C@@H]2CN1C(=O)[C@H](C(C)(C)C)NC(=O)O[C@@H]1C[C@H]1CCCCCc1nc3ccc(OC)cc3nc1O2)C(=O)NS(=O)(=O)C1CC1 [Compound III, hydrate] ) has Cmax equal to 25.6 nM

###

# test description: human clinical trial, pharmacokinetics of Tablet Formulation 6 and Tablet Formulation 7, fasted and fed
# study conditions: in vivo, administered as Tablet Formulation 7, single dose of two tablets, Fed (High-Fat Meal), GM, read-out: AUC0-24 hr
attribute measured: AUC(0-t) (µM·h)
Return type: number; implicit unit µM·h.

Per the records, this compound ( CC(C)OC(=O)[C@@H](C)NP(=O)(OC[C@H]1O[C@@H](n2ccc(=O)[nH]c2=O)[C@](C)(Cl)[C@@H]1O)Oc1ccccc1 (stereo partly shown) ) has AUC(0-t) equal to 4.36

###

# test description: human clinical trial, pharmacokinetics of Tablet Formulation 6 and Tablet Formulation 7, fasted and fed
# study conditions: in vivo, administered as Tablet Formulation 7, single dose of two tablets, Fed (High-Fat Meal), GM
attribute measured: AUC(0-inf) (µM·h)
Return type: number; implicit unit µM·h.

Per the records, this compound ( CC(C)OC(=O)[C@@H](C)NP(=O)(OC[C@H]1O[C@@H](n2ccc(=O)[nH]c2=O)[C@](C)(Cl)[C@@H]1O)Oc1ccccc1 (stereo partly shown) ) has AUC(0-inf) equal to 4.08

###

# test description: human clinical trial, pharmacokinetics of Tablet Formulation 6 and Tablet Formulation 7, fasted and fed
# study conditions: in vivo, administered as Tablet Formulation 7, single dose of two tablets, Fasted, GM, read-out: AUC0-24 hr
attribute measured: AUC(0-t) (µM·h)
Return type: number; implicit unit µM·h.

Per the records, this compound ( CC(C)OC(=O)[C@@H](C)NP(=O)(OC[C@H]1O[C@@H](n2ccc(=O)[nH]c2=O)[C@](C)(Cl)[C@@H]1O)Oc1ccccc1 (stereo partly shown) ) has AUC(0-t) equal to 2.91

###

# test description: human clinical trial, pharmacokinetics of Tablet Formulation 6 and Tablet Formulation 7, fasted and fed
# study conditions: in vivo, oral, administered as Tablet Formulation 6, single dose of two tablets, Fed (High-Fat Meal), GM
Measured AUC(0-inf) by item
Return type: number; implicit unit µM·h.

- compound: "COC(=O)N[C@H](C(=O)N1CCC[C@H]1c1ncc(-c2cc(F)c3c(c2)O[C@@H](c2cnc(C4CC4)s2)n2c-3cc3cc(-c4cnc([C@@H]5CCCN5C(=O)[C@@H](NC(=O)OC)C(C)C)[nH]4)ccc32)[nH]1)C(C)C"
  AUC(0-inf) / µM·h: 1.11

Turning to the following compound.
Per the records, this compound ( C=C[C@@H]1C[C@]1(NC(=O)[C@@H]1C[C@@H]2CN1C(=O)[C@H](C(C)(C)C)NC(=O)O[C@@H]1C[C@H]1CCCCCc1nc3ccc(OC)cc3nc1O2)C(=O)NS(=O)(=O)C1CC1 [Compound III, hydrate] ) has AUC(0-inf) equal to 0.628

###

# test description: log D of Compound III
# Assay type: physicochemical
# study conditions: pH=7
attribute measured: logD

Per the records, this molecule ( C=C[C@@H]1C[C@]1(NC(=O)[C@@H]1C[C@@H]2CN1C(=O)[C@H](C(C)(C)C)NC(=O)O[C@@H]1C[C@H]1CCCCCc1nc3ccc(OC)cc3nc1O2)C(=O)NS(=O)(=O)C1CC1 [Compound III, hydrate] ) has logD equal to ~3
